test system: OVCAR-5; assay: NCI tumour cell line growth inhibition, 48 h
Activity calls are given as the source filed them. Cut-off read from the data, not from the text of the source: active = GI50 up to about 1.1 µM and inactive = higher.
Outcome field: choose from True for active, False for inactive

compound="COc1cc(/C=C2\\CCC(C)C3=C(c4cc(OC)c(OC)c(OC)c4)C(C#N)=C(N)OC32)cc(OC)c1OC (stereo not given)" assigned_class=False
compound=Nc1ccc2nc3ccc(N)cc3[n+](-c3ccccc3)c2c1 assigned_class=False
compound=O=C(NNCc1ccco1)c1cc2ccccc2[nH]1 assigned_class=False

Query string: Can you look up the reported call for COc1cc2cc(C(=O)N3CC(CCl)c4c3cc(NC(=O)C(C)(C)c3ccccc3[N+](=O)[O-])c3ccccc43)[nH]c2c(OC)c1OC (stereo not given) for me?
Result string: False

Query string: Repeat with "C/C(=N\Nc1nc2ccccc2[nH]1)c1cc2ccccc2cn1"
Result string: True

Query string: Repeat with COc1ccc2c(c1)C(OC)C1c3c(cc4c(c3-2)OCO4)CCN1C (stereo not given)
Result string: False

Query string: Repeat with "COc1cc([N+](=O)[O-])c(OC)c2c(Nc3ccc(S(=O)(=O)O)c4cc(S(=O)(=O)O)cc(S(=O)(=O)O)c34)cc(C)nc12"
Result string: False

Query string: Repeat with CC1COC(C)(C)P(=O)(c2ccccc2)C1 (stereo not given)
Result string: False

Query string: Repeat with Cc1ccccc1NC(=O)/C(=N/NC(=O)CC#N)C1C(=O)N(c2ccccc2)N=C1N (stereo not given)
Result string: False

Query string: Repeat with "O=S1(=O)N2CN3CN(C2)CN1C3"
Result string: False
